Value source: patent US12116358B2

- Test system: SETD2(1434-1711) (Homo sapiens)
- Construct: SETD2 (1434-1711) Assay; catalogue N/A
- Protocol description: SETD2 (1434-1711) assay
- Format: biochemical
- Condition description: read-out: SETD2 (1434-1711)
Listed below: IC50 values for each entry.

- Compound: "Cc1ccc(F)c2cc(C(=O)N[C@@H]3CCC[C@@H](N4CCn5ccnc5C4)C3)[nH]c12"
  Test system: "SETD2(1434-1711) (Homo sapiens)"
  IC50: "9700 nM"
- Compound: "Cc1ccc(F)c2cc(C(=O)Nc3cccc(-c4cc5ccccn5n4)c3)[nH]c12"
  Test system: "SETD2(1434-1711) (Homo sapiens)"
  IC50: "300 nM"
- Compound: "Cc1ccc(F)c2cc(C(=O)N[C@@H]3CCC[C@@H](N4CCN(C(=O)C5COC5)CC4)C3)[nH]c12"
  Test system: "SETD2(1434-1711) (Homo sapiens)"
  IC50: "900 nM"
- Compound: "CC(=O)N1CCN(C2COCC(NC(=O)c3cc4c(F)ccc(C)c4[nH]3)C2)CC1 (centres unmarked) [compound 363]"
  Test system: "SETD2(1434-1711) (Homo sapiens)"
  IC50: "1500 nM"
- Compound: "Cc1ccc(F)c2cc(C(=O)N[C@@H]3CCC[C@H](N4CCCC5(CCNC5=O)C4)C3)[nH]c12 (some centres unmarked)"
  Test system: "SETD2(1434-1711) (Homo sapiens)"
  IC50: "100 nM"
- Compound: "Cc1ccc(F)c2cc(C(=O)N[C@@H]3CCC[C@H](N4CCN(C(=O)CO)CC4)C3)[nH]c12"
  Test system: "SETD2(1434-1711) (Homo sapiens)"
  IC50: "10 nM"
- Compound: "Cc1cccc2cc(C(=O)NC3C(=O)NCCc4ccccc43)[nH]c12 (centres unmarked)"
  Test system: "SETD2(1434-1711) (Homo sapiens)"
  IC50: "2200 nM"
- Compound: "Cc1ccc(F)c2cc(C(=O)Nc3cc(F)cc(N4CCC(N(C)C)C4)c3)[nH]c12 (centres unmarked)"
  Test system: "SETD2(1434-1711) (Homo sapiens)"
  IC50: "5 nM"
- Compound: "Cc1ccc(F)c2cc(C(=O)NC(C(=O)N3CCOCC3)c3ccccn3)[nH]c12 (centres unmarked)"
  Test system: "SETD2(1434-1711) (Homo sapiens)"
  IC50: "> 10000 nM"
- Compound: "Cc1ccc(F)c2cc(C(=O)Nc3cccc(CC(=O)N(C)C)c3)[nH]c12"
  Test system: "SETD2(1434-1711) (Homo sapiens)"
  IC50: "200 nM"
- Compound: "Cc1cccnc1C(CCC(=O)N1CCC(O)CC1)NC(=O)c1cc2cccc(C)c2[nH]1 (centres unmarked)"
  Test system: "SETD2(1434-1711) (Homo sapiens)"
  IC50: "4300 nM"
- Compound: "Cc1ccc(F)c2cc(C(=O)Nc3cc(F)cc(N4CCOC(CCO)C4)c3)[nH]c12 (centres unmarked)"
  Test system: "SETD2(1434-1711) (Homo sapiens)"
  IC50: "20 nM"
- Compound: "Cc1cccnc1C(CCCC(=O)N1CCOCC1)NC(=O)c1cc2cccc(C)c2[nH]1 (centres unmarked)"
  Test system: "SETD2(1434-1711) (Homo sapiens)"
  IC50: "6000 nM"
- Compound: "Cc1ccc(F)c2cc(C(=O)N[C@@H]3CCC[C@@H](N4CCn5cnnc5C4)C3)[nH]c12"
  Test system: "SETD2(1434-1711) (Homo sapiens)"
  IC50: "1900 nM"
- Compound: "CCN(C1CCN(C2CCCC(NC(=O)c3cc4c(F)ccc(C)c4[nH]3)C2)C1)S(C)(=O)=O (centres unmarked) [compound 1131]"
  Test system: "SETD2(1434-1711) (Homo sapiens)"
  IC50: "6 nM"
- Compound: "CC(=O)N1C(C)CN(C2CCCC(NC(=O)c3cc4c(F)ccc(C)c4[nH]3)C2)CC1C (centres unmarked) [compound 1123]"
  Test system: "SETD2(1434-1711) (Homo sapiens)"
  IC50: "500 nM"
- Compound: "Cc1ccc(F)c2cc(C(=O)Nc3cccc(N4CCN(C(=O)OC(C)(C)C)CC4)c3)[nH]c12"
  Test system: "SETD2(1434-1711) (Homo sapiens)"
  IC50: "200 nM"
- Compound: "CC(=O)N1CCN([C@H]2CCC[C@@H](NC(=O)c3cc4cccc(C)c4[nH]3)C2)CC1"
  Test system: "SETD2(1434-1711) (Homo sapiens)"
  IC50: "200 nM"
- Compound: "Cc1cccc2cc(C(=O)N[C@H]3CC[C@](C)(NC(=O)CCN)CC3)[nH]c12"
  Test system: "SETD2(1434-1711) (Homo sapiens)"
  IC50: "14500 nM"
- Compound: "Cc1ccc(N2CCN(C)CC2)cc1NC(=O)c1cc2cccc(C)c2[nH]1"
  Test system: "SETD2(1434-1711) (Homo sapiens)"
  IC50: "1400 nM"
- Compound: "Cc1cccc2cc(C(=O)Nc3cccnc3)[nH]c12"
  Test system: "SETD2(1434-1711) (Homo sapiens)"
  IC50: "> 200000 nM"
- Compound: "Cc1ccc(F)c2cc(C(=O)Nc3cccc(N4CCC5(CC4)COCCN5)c3)[nH]c12"
  Test system: "SETD2(1434-1711) (Homo sapiens)"
  IC50: "20 nM"
- Compound: "Cc1cccc2cc(C(=O)NCc3cccc(CN4CCCC4)c3)[nH]c12"
  Test system: "SETD2(1434-1711) (Homo sapiens)"
  IC50: "37000 nM"
- Compound: "Cc1ccc(F)c2cc(C(=O)Nc3cc(F)cc(C4CCN5C(=O)CCC5C4)c3)[nH]c12 (centres unmarked)"
  Test system: "SETD2(1434-1711) (Homo sapiens)"
  IC50: "10 nM"
- Compound: "Cc1cccc([C@@H](C)NC(=O)c2cc3cccc(C)c3[nH]2)c1"
  Test system: "SETD2(1434-1711) (Homo sapiens)"
  IC50: "91200 nM"
- Compound: "Cc1ccc(F)c2cc(C(=O)Nc3cc(F)cc(N4CCC5(CCNCC5(F)F)C4)c3)[nH]c12 (centres unmarked)"
  Test system: "SETD2(1434-1711) (Homo sapiens)"
  IC50: "10 nM"
- Compound: "Cc1nc(C(C)NC(=O)c2cc3cccc(C)c3[nH]2)no1 (centres unmarked)"
  Test system: "SETD2(1434-1711) (Homo sapiens)"
  IC50: "> 200000 nM"
- Compound: "Cc1ccc(C)c2[nH]c(C(=O)N[C@H]3CC[C@H](N)CC3)cc12"
  Test system: "SETD2(1434-1711) (Homo sapiens)"
  IC50: "> 130000 nM"
- Compound: "Cc1ccc(F)c2cc(C(=O)Nc3cc(F)cc(N4CC5(CCN(CC(F)F)CC5)C4)c3)[nH]c12"
  Test system: "SETD2(1434-1711) (Homo sapiens)"
  IC50: "40 nM"
- Compound: "Cc1ccc(F)c2cc(C(=O)Nc3cccc(N4CCN(C)C(=O)C4)c3)[nH]c12"
  Test system: "SETD2(1434-1711) (Homo sapiens)"
  IC50: "40 nM"
- Compound: "Cc1ccc(F)c2cc(C(=O)Nc3cccc(S(N)(=O)=O)c3)[nH]c12"
  Test system: "SETD2(1434-1711) (Homo sapiens)"
  IC50: "2800 nM"
- Compound: "Cc1ccc(F)c2cc(C(=O)N[C@@H]3CCC[C@@H](N4CCC(N5CCCC5=O)C4)C3)[nH]c12 (some centres unmarked)"
  Test system: "SETD2(1434-1711) (Homo sapiens)"
  IC50: "1000 nM"

###

- Test system: SETD2(1434-1711) (Homo sapiens, UniProt Q9BYW2)
- Construct: SETD2 (1434-1711) Assay; catalogue N/A
- Sequence (Q9BYW2 1434-1711): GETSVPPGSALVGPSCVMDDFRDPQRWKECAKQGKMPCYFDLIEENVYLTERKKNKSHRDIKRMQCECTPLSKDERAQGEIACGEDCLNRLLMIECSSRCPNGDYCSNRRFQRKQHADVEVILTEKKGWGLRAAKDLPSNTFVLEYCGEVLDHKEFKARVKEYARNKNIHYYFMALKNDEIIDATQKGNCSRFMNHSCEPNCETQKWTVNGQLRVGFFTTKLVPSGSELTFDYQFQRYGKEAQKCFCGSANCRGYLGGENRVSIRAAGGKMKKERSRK
- Protocol description: SETD2 (1434-1711) assay
- Format: biochemical
- Condition description: read-out: SETD2 (1434-1711)
pIC50: −log10 of the molar value.
Measurement name: pIC50

- Compound: "Cc1cccc2cc(C(=O)NC3CC4CCC(C3)N4C(=O)CCCN)[nH]c12 (stereo not shown)"
  Test system: "SETD2(1434-1711) (Homo sapiens, UniProt Q9BYW2)"
  Measurement name: "pIC50"
  Censoring qualifier: "="
  Numeric result: 5.11
- Compound: "CCN1CCN(C2CCCC(NC(=O)c3cc4c(F)ccc(C)c4[nH]3)C2)CC1=O (stereo not shown)"
  Test system: "SETD2(1434-1711) (Homo sapiens, UniProt Q9BYW2)"
  Measurement name: "pIC50"
  Censoring qualifier: "="
  Numeric result: 7.00
- Compound: "Cc1cccnc1C(NC(=O)c1cc2ncccn2n1)C1CC1 (stereo not shown)"
  Test system: "SETD2(1434-1711) (Homo sapiens, UniProt Q9BYW2)"
  Measurement name: "pIC50"
  Censoring qualifier: "<"
  Numeric result: 4.30
- Compound: "Cc1cccc2cc(C(=O)Nc3cccc(CN4CCN(C)CC4)c3)[nH]c12"
  Test system: "SETD2(1434-1711) (Homo sapiens, UniProt Q9BYW2)"
  Measurement name: "pIC50"
  Censoring qualifier: "="
  Numeric result: 5.60
- Compound: "Cc1ccc(F)c2cc(C(=O)N[C@@H]3CCC[C@H](N4CCC(N(C)C(=O)CN(C)C)C4)C3)[nH]c12 (stereo partly shown)"
  Test system: "SETD2(1434-1711) (Homo sapiens, UniProt Q9BYW2)"
  Measurement name: "pIC50"
  Censoring qualifier: "="
  Numeric result: 8.40
- Compound: "Cc1ccc(F)c2cc(C(=O)Nc3cc(C#N)cc(N4CCC(N(C)C)CC4)c3)[nH]c12"
  Test system: "SETD2(1434-1711) (Homo sapiens, UniProt Q9BYW2)"
  Measurement name: "pIC50"
  Censoring qualifier: "="
  Numeric result: 7.22
- Compound: "Cc1ccc(F)c2cc(C(=O)Nc3cccc(-c4nccn4C)c3)[nH]c12"
  Test system: "SETD2(1434-1711) (Homo sapiens, UniProt Q9BYW2)"
  Measurement name: "pIC50"
  Censoring qualifier: "="
  Numeric result: 7.00
- Compound: "Cc1ccc(F)c2cc(C(=O)Nc3cccc(-c4cncnc4)c3)[nH]c12"
  Test system: "SETD2(1434-1711) (Homo sapiens, UniProt Q9BYW2)"
  Measurement name: "pIC50"
  Censoring qualifier: "="
  Numeric result: 7.22
- Compound: "CC(=O)N1CC2CC1CN2C1CCCC(NC(=O)c2cc3c(F)ccc(C)c3[nH]2)C1 (stereo not shown)"
  Test system: "SETD2(1434-1711) (Homo sapiens, UniProt Q9BYW2)"
  Measurement name: "pIC50"
  Censoring qualifier: "="
  Numeric result: 5.17
- Compound: "CC(=O)N1CCN([C@H]2CCC[C@@H](NC(=O)c3cc4c(F)ccc(C)c4[nH]3)C2)C[C@H]1C(F)(F)F"
  Test system: "SETD2(1434-1711) (Homo sapiens, UniProt Q9BYW2)"
  Measurement name: "pIC50"
  Censoring qualifier: "="
  Numeric result: 8.00
- Compound: "Cc1ccc(F)c2cc(C(=O)Nc3cccc(N4CC5CC4CO5)c3)[nH]c12 (stereo not shown)"
  Test system: "SETD2(1434-1711) (Homo sapiens, UniProt Q9BYW2)"
  Measurement name: "pIC50"
  Censoring qualifier: "="
  Numeric result: 6.70
- Compound: "Cc1cccnc1C(CCC(=O)N1CCn2cncc2C1)NC(=O)c1cc2cccc(C)c2[nH]1 (stereo not shown)"
  Test system: "SETD2(1434-1711) (Homo sapiens, UniProt Q9BYW2)"
  Measurement name: "pIC50"
  Censoring qualifier: "="
  Numeric result: 5.35
- Compound: "CC(=O)N1CC2CC1CN2c1cccc(NC(=O)c2cc3c(F)ccc(C)c3[nH]2)c1 (stereo not shown)"
  Test system: "SETD2(1434-1711) (Homo sapiens, UniProt Q9BYW2)"
  Measurement name: "pIC50"
  Censoring qualifier: "="
  Numeric result: 6.15
- Compound: "Cc1cccc2cc(C(=O)N(C)[C@H]3CC[C@H](NC(=O)CCN)CC3)[nH]c12"
  Test system: "SETD2(1434-1711) (Homo sapiens, UniProt Q9BYW2)"
  Measurement name: "pIC50"
  Censoring qualifier: "="
  Numeric result: 4.70
- Compound: "CC[C@H]1CN([C@H]2CCC[C@@H](NC(=O)c3cc4c(F)ccc(C)c4[nH]3)C2)CCN1C(C)=O"
  Test system: "SETD2(1434-1711) (Homo sapiens, UniProt Q9BYW2)"
  Measurement name: "pIC50"
  Censoring qualifier: "="
  Numeric result: 7.52
- Compound: "Cc1ccc(F)c2cc(C(=O)N[C@@H]3CCC[C@@H](N4CCCNC(=O)C4)C3)[nH]c12"
  Test system: "SETD2(1434-1711) (Homo sapiens, UniProt Q9BYW2)"
  Measurement name: "pIC50"
  Censoring qualifier: "="
  Numeric result: 5.08
